# TARGET OF ASSAY: protein kinases (human kinome) (Homo sapiens)
# Format: cell-based
# CONDITION LABEL: experiment wp016
Classify as follows. Reported logFC WEE1 (P30291-1) greater than or equal to -1: true. Reported logFC WEE1 (P30291-1) below: false.

// known answers, use as guide
1) CC(C)S(=O)(=O)c1ccccc1Nc1nc(Nc2ccc(N3CCN(CCOCCOCCNC(=O)CNc4ccc5c(c4)C(=O)N(C4CCC(=O)NC4=O)C5=O)CC3)cc2)ncc1Cl (stereo not drawn)    false
2) CC(C)S(=O)(=O)c1ccccc1Nc1nc(Nc2ccc(N3CCN(CCOCCNC(=O)CNc4ccc5c(c4)C(=O)N(C4CCC(=O)NC4=O)C5=O)CC3)cc2)ncc1Cl (stereo not drawn)    false
3) CC(C)S(=O)(=O)c1ccccc1Nc1nc(Nc2ccc(N3CCN(CCOCCNC(=O)CNc4cccc5c4C(=O)N(C4CCC(=O)NC4=O)C5=O)CC3)cc2)ncc1Cl (stereo not drawn)    false
4) CC(C)S(=O)(=O)c1ccccc1Nc1nc(Nc2ccc(N3CCN(CCOCCOCCNC(=O)CNc4cccc5c4C(=O)N(C4CCC(=O)NC4=O)C5=O)CC3)cc2)ncc1Cl (stereo not drawn)    false

Let us examine a further case.
Incoming: Is logFC WEE1 (P30291-1) at least -1? Consider CC(C)S(=O)(=O)c1ccccc1Nc1nc(Nc2ccc(N3CCN(CCOCCOCCOCCNC(=O)CNc4cccc5c4C(=O)N(C4CCC(=O)NC4=O)C5=O)CC3)cc2)ncc1Cl (stereo not drawn)
Outgoing: true

---

# TARGET OF ASSAY: protein kinases (human kinome) (Homo sapiens)
# Sequence (O14965 1-403): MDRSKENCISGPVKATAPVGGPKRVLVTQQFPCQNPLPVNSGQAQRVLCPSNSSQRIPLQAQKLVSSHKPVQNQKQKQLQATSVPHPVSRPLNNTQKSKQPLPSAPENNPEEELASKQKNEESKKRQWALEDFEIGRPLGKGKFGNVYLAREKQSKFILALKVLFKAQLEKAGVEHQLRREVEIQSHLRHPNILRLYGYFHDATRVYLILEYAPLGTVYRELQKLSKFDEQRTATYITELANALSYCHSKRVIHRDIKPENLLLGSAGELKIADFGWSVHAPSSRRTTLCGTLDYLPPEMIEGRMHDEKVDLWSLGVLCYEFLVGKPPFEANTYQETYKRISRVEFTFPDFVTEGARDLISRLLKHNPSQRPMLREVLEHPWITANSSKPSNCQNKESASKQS
# Assay type: cell-based
# CONDITION LABEL: experiment wp076
MEASURED ENDPOINT: logFC AURKA (O14965)
// response body must contain only the number

Some entries whose results are on file:
1. CCc1cnn2c(N(Cc3ccc(N)nc3)C(=O)CCOCCOCCOCCNC(=O)CNc3cccc4c3C(=O)N(C3CCC(=O)NC3=O)C4=O)cc(N3CCCC[C@H]3CCO)nc12 (stereo partly shown)    −0.5912
2. CNC(=O)c1ccccc1Nc1cc(Nc2ccc(N3CCN(CCCCCCCCNc4cccc5c4C(=O)N(C4CCC(=O)NC4=O)C5=O)CC3)cc2OC)ncc1C(F)(F)F (stereo not shown)    −0.707
3. O=C1CCC(N2C(=O)c3cccc(NCCCCCCCCN4CCC(NC(=O)c5[nH]ncc5NC(=O)c5c(Cl)cccc5Cl)CC4)c3C2=O)C(=O)N1 (stereo not shown)    −0.9474

// switching to the query compound
Incoming: Fill in the blank: the reported logFC AURKA (O14965) of CNC(=O)c1ccccc1Nc1cc(Nc2ccc(N3CCN(CCOCCOCCNC(=O)CNc4cccc5c4C(=O)N(C4CCC(=O)NC4=O)C5=O)CC3)cc2OC)ncc1C(F)(F)F (stereo not shown) is ____.
Outgoing: −0.9893

---

# TARGET OF ASSAY: UniProt Q00534
# Sequence (Q00534 whole entry): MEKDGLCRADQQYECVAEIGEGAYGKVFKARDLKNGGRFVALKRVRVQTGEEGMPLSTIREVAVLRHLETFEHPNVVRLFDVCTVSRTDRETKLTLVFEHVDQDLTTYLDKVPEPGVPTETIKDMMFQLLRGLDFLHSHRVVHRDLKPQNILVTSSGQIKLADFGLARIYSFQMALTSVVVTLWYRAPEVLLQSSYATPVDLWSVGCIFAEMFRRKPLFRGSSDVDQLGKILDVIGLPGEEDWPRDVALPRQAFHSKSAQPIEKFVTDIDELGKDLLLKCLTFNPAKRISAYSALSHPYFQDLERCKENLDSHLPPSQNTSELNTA
# Assay type: cell-based
# CONDITION LABEL: CDK6 (Q00534), direction down; experiment wp137
MEASURED ENDPOINT: logFC CDK6
// response body must contain only the number

1. CC(C)S(=O)(=O)c1ccccc1Nc1nc(Nc2ccc(N3CCN(CCOCCOCCC(=O)NCCNc4cccc5c4CN(C4CCC(=O)NC4=O)C5=O)CC3)cc2)ncc1Cl (stereo not shown) [TL13.97]    −0.5967
2. CC(=O)c1c(C)c2cnc(Nc3ccc(N4CCN(CCCCNC(=O)COc5cccc6c5C(=O)N(C5CCC(=O)NC5=O)C6=O)CC4)cn3)nc2n(C2CCCC2)c1=O (stereo not shown) [BSJ.03.204]    −2.866
3. CC(C)S(=O)(=O)c1ccccc1Nc1nc(Nc2ccc(N3CCN(CCOCCOCCNC(=O)CNc4cccc5c4C(=O)N(C4CCC(=O)NC4=O)C5=O)CC3)cc2)ncc1Cl (stereo not shown) [TL12.186]    −0.8724

// switching to the query compound
Incoming: Fill in the blank: the reported logFC CDK6 of CC(C)(C)c1nc(-c2cccc(NS(=O)(=O)c3c(F)cccc3F)c2F)c(-c2ccnc(NCCOCCNC(=O)CCOCCOCCNc3cccc4c3C(=O)N(C3CCC(=O)NC3=O)C4=O)n2)s1 (stereo not shown) [DD.03.106] is ____.
Outgoing: −1.083

---

# TARGET OF ASSAY: protein kinases (human kinome) (Homo sapiens, UniProt P30291)
# Sequence (P30291 whole entry): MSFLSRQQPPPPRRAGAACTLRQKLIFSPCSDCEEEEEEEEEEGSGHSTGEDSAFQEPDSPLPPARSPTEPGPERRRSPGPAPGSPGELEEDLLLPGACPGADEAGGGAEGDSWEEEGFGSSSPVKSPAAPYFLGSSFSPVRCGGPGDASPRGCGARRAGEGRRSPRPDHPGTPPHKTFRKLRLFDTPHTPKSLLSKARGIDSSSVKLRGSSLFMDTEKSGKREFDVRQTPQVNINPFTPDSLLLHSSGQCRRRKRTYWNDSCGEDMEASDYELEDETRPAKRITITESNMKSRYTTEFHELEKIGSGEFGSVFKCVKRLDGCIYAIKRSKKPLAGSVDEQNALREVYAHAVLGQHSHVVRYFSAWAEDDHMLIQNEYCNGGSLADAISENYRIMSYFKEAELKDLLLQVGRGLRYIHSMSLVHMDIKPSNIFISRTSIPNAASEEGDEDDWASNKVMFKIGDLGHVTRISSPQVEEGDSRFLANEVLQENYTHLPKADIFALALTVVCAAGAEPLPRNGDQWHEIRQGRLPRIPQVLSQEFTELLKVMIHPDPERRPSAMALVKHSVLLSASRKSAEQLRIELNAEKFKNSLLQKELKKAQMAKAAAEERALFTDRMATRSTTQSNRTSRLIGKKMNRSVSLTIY
# Assay type: cell-based
# CONDITION LABEL: WEE1 P30291-1; experiment wp076; degrader vs DMSO
Some compounds, each annotated with its measured logFC of WEE1.
// response body must contain only the number

1. CNC(=O)c1ccccc1Nc1cc(Nc2ccc(N3CCN(CCOCCOCCNC(=O)CNc4cccc5c4C(=O)N(C4CCC(=O)NC4=O)C5=O)CC3)cc2OC)ncc1C(F)(F)F (stereo not shown) [MFH.S.103.1]    −0.9694
2. CCc1cnn2c(N(Cc3ccc(N)nc3)C(=O)CCOCCOCCOCCNC(=O)CNc3cccc4c3C(=O)N(C3CCC(=O)NC3=O)C4=O)cc(N3CCCC[C@H]3CCO)nc12 (stereo partly shown) [MFH.5.115.2]    −0.7664
3. O=C1CCC(N2C(=O)c3cccc(NCCCCCCCCN4CCC(NC(=O)c5[nH]ncc5NC(=O)c5c(Cl)cccc5Cl)CC4)c3C2=O)C(=O)N1 (stereo not shown) [MFH.5.126.1]    −0.9048

// switching to the query compound
Incoming: Fill in the blank: the reported logFC of WEE1 of CNC(=O)c1ccccc1Nc1cc(Nc2ccc(N3CCN(CCCCCCCCNc4cccc5c4C(=O)N(C4CCC(=O)NC4=O)C5=O)CC3)cc2OC)ncc1C(F)(F)F (stereo not shown) [MFH.5.116.1] is ____.
Outgoing: −0.4799

---

# TARGET OF ASSAY: protein kinases (human kinome)
# Format: cell-based
# CONDITION LABEL: kinases significantly downregulated vs DMSO (fold change cutoff −1.25, P-value<0.01); ≤8 h, 0.1-5 μM degrader; 7 cell lines
MEASURED ENDPOINT: Kinase hits

1) CC(=O)c1c(C)c2cnc(Nc3ccc(N4CCN(CCCCNC(=O)CNc5cccc6c5C(=O)N(C5CCC(=O)NC5=O)C6=O)CC4)cn3)nc2n(C2CCCC2)c1=O (stereo not shown) [BSJ-01-147]    CDK4, CDK6, WEE1
2) CC(=O)c1c(C)c2cnc(Nc3ccc(N4CCN(CC(=O)NCCOCCOCCOCCNc5cccc6c5C(=O)N(C5CCC(=O)NC5=O)C6=O)CC4)cn3)nc2n(C2CCCC2)c1=O (stereo not shown) [YKL-06-102]    CDK4, CDK6, WEE1

---

Some compounds, each annotated with its measured logFC CDK2 (P24941-1).
# TARGET OF ASSAY: protein kinases (human kinome) (Homo sapiens, UniProt P24941)
# Format: cell-based
# CONDITION LABEL: experiment wp146; direction of change down
// response body must contain only the number

Some entries whose results are on file:
1) NC(=O)c1c(F)cccc1Nc1nc(Nc2ccc(S(=O)(=O)NCCOCCOCCOCCOCCNc3cccc4c3C(=O)N(C3CCC(=O)NC3=O)C4=O)cc2)ncc1Br (stereo not shown) [TMX.02.138]    −2.27
2) NC(=O)c1c(F)cccc1Nc1nc(NC2CCN(S(=O)(=O)CCNC(=O)CCCCCCCCOc3cccc4c3C(=O)N(C3CCC(=O)NC3=O)C4=O)CC2)ncc1Br (stereo not shown) [TMX.01.160]    −1.971
3) Cc1cc(Nc2ncc(Br)c(Nc3cccc(F)c3C(N)=O)n2)ccc1S(=O)(=O)NCCOCCOCCOCCOCCNc1cccc2c1C(=O)N(C1CCC(=O)NC1=O)C2=O (stereo not shown) [TMX.02.174]    −2.295

// switching to the query compound
Incoming: Which measured logFC CDK2 (P24941-1) belongs to Cc1cc(S(=O)(=O)NCCOCCOCCOCCOCCNc2cccc3c2C(=O)N(C2CCC(=O)NC2=O)C3=O)ccc1Nc1ncc(Br)c(Nc2cccc(F)c2C(N)=O)n1 (stereo not shown) [TMX.02.172] , tested on protein kinases (human kinome) (Homo sapiens, UniProt P24941)?
Outgoing: −2.199
